# tgt: human 5-HT6 receptor (Homo sapiens, UniProt P50406)
# Construct: host or cells: CHO-K1 cells, stably transfected; membranes prepared in house
# Sequence (P50406 whole entry): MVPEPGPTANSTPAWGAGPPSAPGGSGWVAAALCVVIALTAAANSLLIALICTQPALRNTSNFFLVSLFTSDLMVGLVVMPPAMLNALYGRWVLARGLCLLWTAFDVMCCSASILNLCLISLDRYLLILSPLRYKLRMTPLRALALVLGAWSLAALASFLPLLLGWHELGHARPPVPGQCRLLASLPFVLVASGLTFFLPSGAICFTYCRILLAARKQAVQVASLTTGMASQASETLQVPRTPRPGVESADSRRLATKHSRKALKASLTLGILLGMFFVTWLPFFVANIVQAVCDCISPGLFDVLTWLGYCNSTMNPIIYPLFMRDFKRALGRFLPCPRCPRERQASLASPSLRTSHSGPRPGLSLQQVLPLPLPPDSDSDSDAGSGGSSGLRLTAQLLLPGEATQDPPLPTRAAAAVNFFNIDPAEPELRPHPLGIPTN
# test.details: Human 5-HT6 Receptor Binding Assay ([3H]LSD displacement, scintillation beads)
# test.conditions: membranes of CHO-K1 cells with recombinant human 5-HT6, 4 nM [3H]LSD; Table 1, class symbols; read-out: h5-HT6 (Ki)
# Method: Human 5-HT6 Receptor Binding Assay Membranes were prepared from CHO—K1 cells stably transfected with the human 5-HT6 receptor (Euroscreen; ES-316-C). […] The membranes were centrifuged at 40,000×g for 30 min at 4° C. and the pellets were resuspended in membrane buffer containing 250 mM sucrose, and protein concentration was determined using the Coomassie Plus kit (Pierce Biotechnology, Rockford, Ill.). […]
pKi: −log10 of the molar value.

[
  {
    "molecule": "Cc1nc(S(=O)(=O)Oc2ccc3c(c2)OC2CNCCC32)cn1C (centres unmarked)",
    "pKi": "< 6.00"
  },
  {
    "molecule": "O=S(=O)(Oc1ccc2c(c1)C1CCNCC1O2)c1ccccc1Cl (centres unmarked)",
    "pKi": "> 6.30"
  },
  {
    "molecule": "CC(=O)NCCC1NCCc2c1oc1ccc(S(=O)(=O)c3cccc(F)c3)cc21 (centres unmarked)",
    "pKi": "6.00 to 6.30"
  },
  {
    "molecule": "Cc1ccc(C)c(S(=O)(=O)Nc2ccc3c(c2)C2CCNCC2O3)c1 (centres unmarked)",
    "pKi": "> 6.30"
  },
  {
    "molecule": "O=S(=O)(Nc1ccc2c(c1)C1CCNCC1O2)c1ccccc1 (centres unmarked)",
    "pKi": "< 6.00"
  }
]

----------
# tgt: human 5-HT6 receptor (Homo sapiens)
# Construct: host or cells: CHO-K1 cells, stably transfected; membranes prepared in house
# test.details: Human 5-HT6 Receptor Binding Assay ([3H]LSD displacement, scintillation beads)
# test.conditions: membranes of CHO-K1 cells with recombinant human 5-HT6, 4 nM [3H]LSD; Table 1, class symbols; read-out: h5-HT6 (Ki)
pKi: −log10 of the molar value.

[
  {
    "compound": "CC(=O)NCCC1NCCc2c1oc1cc(S(=O)(=O)c3cccc(Cl)c3)ccc21 (racemic) [Example 540]",
    "pKi": "> 6.30"
  },
  {
    "compound": "CC12CCNCC1Oc1ccc(OS(=O)(=O)Cc3cccc(Cl)c3)cc12 (stereo not drawn) [Example 791]",
    "pKi": "> 6.30"
  },
  {
    "compound": "CC12CCNCC1Oc1ccc(OS(=O)(=O)c3ccc(Oc4ccccc4)nc3)cc12 (stereo not drawn) [Example 782]",
    "pKi": "< 6.00"
  },
  {
    "compound": "O=S(=O)(c1cccc(F)c1)c1ccc2c3c(oc2c1)C(C1CCOCC1)NCC3 (stereo not drawn) [Example 496]",
    "pKi": "> 6.30"
  },
  {
    "compound": "COc1ccc(S(=O)(=O)Oc2ccc3c(c2)C2(C)CCNCC2O3)cc1 (stereo not drawn) [Example 760]",
    "pKi": "< 6.00"
  },
  {
    "compound": "O=S(=O)(c1cccc(C(F)(F)F)c1)c1ccc2oc3c(c2c1)CCNC3 [Example 239]",
    "pKi": "> 6.30"
  },
  {
    "compound": "COc1ccc(S(=O)(=O)c2ccc3oc4c(c3c2)CCNC4)cc1OC [Example 242]",
    "pKi": "< 6.00"
  },
  {
    "compound": "CC12CCNCC1Oc1ccc(OS(=O)(=O)c3cc4ccccc4s3)cc12 (stereo not drawn) [Example 773]",
    "pKi": "> 6.30"
  },
  {
    "compound": "CC(=O)N1CCC2c3cc(NS(=O)(=O)c4c(Cl)nc5sccn45)ccc3OC2C1 (stereo not drawn) [Example 816]",
    "pKi": "6.00 to 6.30"
  }
]

----------
Property: pKi; scope: individual molecules
# tgt: human 5-HT6 receptor (Homo sapiens)
# Construct: host or cells: CHO-K1 cells, stably transfected; membranes prepared in house
# test.details: Human 5-HT6 Receptor Binding Assay ([3H]LSD displacement, scintillation beads)
# test.conditions: membranes of CHO-K1 cells with recombinant human 5-HT6, 4 nM [3H]LSD; Table 1, class symbols; read-out: h5-HT6 (Ki)
pKi: −log10 of the molar value.

[
  {
    "molecule": "O=S(=O)(c1ccc2c(c1)OC1CNCCC21)c1ccccc1Cl (stereo not drawn)",
    "pKi": "> 6.30"
  },
  {
    "molecule": "CC1OCCC12NCCc1c2oc2cc(S(=O)(=O)c3cccc(F)c3)ccc12 (single isomer, unassigned) [Example 57]",
    "pKi": "> 6.30"
  },
  {
    "molecule": "CC12CCNCC1Oc1ccc(OS(=O)(=O)c3ccc(-n4cccn4)cc3)cc12 (stereo not drawn)",
    "pKi": "< 6.00"
  },
  {
    "molecule": "O=S(=O)(c1ccc2c(c1)OC1CNCCC21)c1cc(F)ccc1F (stereo not drawn)",
    "pKi": "> 6.30"
  },
  {
    "molecule": "COc1ccc(S(=O)(=O)c2ccc3c(c2)C2(C)CCNCC2O3)cc1F (stereo not drawn)",
    "pKi": "> 6.30"
  },
  {
    "molecule": "COc1cc2c(cc1OC)CN(S(=O)(=O)c1ccc3c(c1)C1CCNCC1O3)CC2 (stereo not drawn)",
    "pKi": "< 6.00"
  },
  {
    "molecule": "COc1ccc(S(=O)(=O)c2ccc3c(c2)OC2CNCCC32)cc1 (stereo not drawn) [Example 323]",
    "pKi": "< 6.00"
  },
  {
    "molecule": "COc1ccc(F)cc1S(=O)(=O)c1ccc2c(c1)OC1CNCCC21 (stereo not drawn)",
    "pKi": "< 6.00"
  },
  {
    "molecule": "Cc1cc(C)c(S(=O)(=O)Oc2ccc3c(c2)C2CCNCC2O3)c(C)c1 (stereo not drawn)",
    "pKi": "> 6.30"
  },
  {
    "molecule": "O=S(=O)(c1ccc(OC(F)(F)F)cc1)c1ccc2c3c(oc2c1)CNCC3",
    "pKi": "> 6.30"
  },
  {
    "molecule": "O=S(=O)(c1cccc(Cl)c1)c1ccc2c3c(oc2c1)CN(CCCO)CC3",
    "pKi": "> 6.30"
  },
  {
    "molecule": "O=S(=O)(c1ccc2c(c1)OC1CNCCC21)c1cccc2c1OCCO2 (stereo not drawn) [Example 462]",
    "pKi": "< 6.00"
  },
  {
    "molecule": "CC12CCNCC1Oc1ccc(OS(=O)(=O)c3cccc4ccccc34)cc12 (stereo not drawn)",
    "pKi": "6.00 to 6.30"
  },
  {
    "molecule": "O=S(=O)(Oc1ccc2c(c1)C1CCNCC1O2)c1ccc(Cl)cc1 (stereo not drawn)",
    "pKi": "< 6.00"
  },
  {
    "molecule": "CC12CCNCC1Oc1ccc(OS(=O)(=O)c3ccc(-c4ccon4)s3)cc12 (stereo not drawn)",
    "pKi": "< 6.00"
  },
  {
    "molecule": "O=S(=O)(c1ccc2c(c1)OC1CNCCC21)c1cccc2c1OC(F)(F)O2 (stereo not drawn) [Example 461]",
    "pKi": "> 6.30"
  },
  {
    "molecule": "O=S(=O)(c1ccc2c(c1)OC1CNCCC21)c1ccc(Cl)c(C(F)(F)F)c1 (stereo not drawn)",
    "pKi": "> 6.30"
  },
  {
    "molecule": "O=S(=O)(c1ccccc1)c1ccc2c(c1)C1CCNCC1O2 (stereo not drawn) [Example 337]",
    "pKi": "< 6.00"
  }
]

----------
Property: pKi; scope: individual molecules
# tgt: human 5-HT6 receptor (Homo sapiens, UniProt P50406)
# Construct: host or cells: CHO-K1 cells, stably transfected; membranes prepared in house
# test.details: Human 5-HT6 Receptor Binding Assay ([3H]LSD displacement, scintillation beads)
# test.conditions: membranes of CHO-K1 cells with recombinant human 5-HT6, 4 nM [3H]LSD; Table 1, class symbols; read-out: h5-HT6 (Ki)
pKi: −log10 of the molar value.

[
  {
    "molecule": "CC12CCNCC1Oc1ccc(OS(=O)(=O)c3csc4ccccc34)cc12 (stereo not drawn) [Example 771]",
    "pKi": "> 6.30"
  },
  {
    "molecule": "O=S(=O)(c1ccccc1)c1ccc2c(c1)C1CCNCC1O2 (stereo not drawn) [Example 334]",
    "pKi": "6.00 to 6.30"
  },
  {
    "molecule": "O=S(=O)(c1cccc(F)c1)c1ccc2oc3c(c2c1)CCNC3C1CCOC1 (stereo not drawn)",
    "pKi": "> 6.30"
  },
  {
    "molecule": "O=S(=O)(c1ccc2c3c(oc2c1)CNCC3)c1ccccc1F",
    "pKi": "> 6.30"
  },
  {
    "molecule": "[O-][S+](c1ccc2oc3c(c2c1)CCNC3)c1cc(F)cc(F)c1F (stereo not drawn)",
    "pKi": "< 6.00"
  },
  {
    "molecule": "O=S(=O)(Oc1ccc2c(c1)OC1CNCCC21)c1ccc(F)cc1 (stereo not drawn)",
    "pKi": "> 6.30"
  },
  {
    "molecule": "O=S(=O)(c1ccc2oc3c(c2c1)CCNC3)c1cccc2cccnc12",
    "pKi": "> 6.30"
  },
  {
    "molecule": "COc1cccc(S(=O)(=O)c2ccc3c(c2)OC2CNCCC32)c1F (stereo not drawn) [Example 416]",
    "pKi": "> 6.30"
  },
  {
    "molecule": "Cc1nc(COc2cccc(S(=O)(=O)c3ccc4c(c3)OC3CNCCC43)c2)cs1 (stereo not drawn)",
    "pKi": "> 6.30"
  },
  {
    "molecule": "COc1cc(S(=O)(=O)c2ccc3c4c(oc3c2)C(C)(C)NCC4)c[n+]([O-])c1",
    "pKi": "< 6.00"
  },
  {
    "molecule": "Cc1cc(C)c(S(=O)(=O)Oc2ccc3c(c2)OC2CNCCC32)c(C)c1 (stereo not drawn)",
    "pKi": "> 6.30"
  },
  {
    "molecule": "Cc1c(OCc2cccnc2)cccc1S(=O)(=O)c1ccc2c(c1)OC1CNCCC21 (stereo not drawn)",
    "pKi": "> 6.30"
  },
  {
    "molecule": "O=S(=O)(c1ccncc1)c1ccc2c3c(oc2c1)CNCC3",
    "pKi": "6.00 to 6.30"
  },
  {
    "molecule": "O=S(=O)(c1ccc(Cl)c(Cl)c1)c1cccc2c1OC1CNCCC21 (stereo not drawn)",
    "pKi": "> 6.30"
  },
  {
    "molecule": "O=S(=O)(c1cccc(O)c1)c1ccc2c3c(oc2c1)CNCC3",
    "pKi": "> 6.30"
  },
  {
    "molecule": "O=S(=O)(Oc1ccc2c(c1)OC1CN(C3CCCCC3)CCC21)c1ccc(Cl)cc1 (stereo not drawn)",
    "pKi": "6.00 to 6.30"
  },
  {
    "molecule": "CC(C)Oc1cccc(S(=O)(=O)c2ccc3c(c2)OC2CNCCC32C)c1 (racemic) [Example 12]",
    "pKi": "> 6.30"
  },
  {
    "molecule": "CC(=O)N(C)CCC1NCCc2c1oc1ccc(S(=O)(=O)c3cccc(F)c3)cc21 (stereo not drawn)",
    "pKi": "> 6.30"
  }
]
